# credit: patent US20240246941A1

- assay_system: interaction between GST-MAGEA11 MHD and FAM-PCF11_4 peptide (MAGE-A11:PCF11) (Homo sapiens (Human), UniProt P43364)
- Sequence (P43364 218-429): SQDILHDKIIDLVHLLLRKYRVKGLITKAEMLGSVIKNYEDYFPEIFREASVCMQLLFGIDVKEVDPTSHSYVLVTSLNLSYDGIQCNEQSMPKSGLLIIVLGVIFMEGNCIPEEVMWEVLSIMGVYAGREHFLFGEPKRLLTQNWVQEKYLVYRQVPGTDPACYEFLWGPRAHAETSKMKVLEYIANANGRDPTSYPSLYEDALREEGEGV
- assay_procedure: TR-FRET dose response competition assay for disruption of MAGE-A11:PCF11 binding
- details: Dose response TR-FRET screening of nine scaffold groups against MAGE-A11:PCF11; read-out: consensus IC50
IC50 vs 30 µM: less than gives t; not less than gives f.

1) COP(=O)(OC)c1nc(-c2ccc(Cl)cc2)oc1N1CCOCC1 | t
2) FC(F)(F)c1ccc2c(NCCCNCc3ccc4c(c3)OCO4)ccnc2c1 | f
3) c1cc(CNCCCNc2ccnc3cc(CC4CCCCC4)ccc23)c2c(c1)OCO2 | t
4) COc1ccc(F)cc1CNCCCNc1ccnc2cc(-c3ccc(F)cc3)ccc12 | f
5) CCn1c2ccccc2c2cc(CN3CCN(S(=O)(=O)CC)CC3)ccc21 | f
6) CCCN1C(=O)c2ccccc2NC1c1ccc(F)cc1 (centres unmarked) | f
7) CCn1c2ccccc2c2cc(CN3CCc4nnc(C(C)NC(=O)CCOC)n4CC3)ccc21 (centres unmarked) | f
8) CSc1ccc(-c2nc3c(c(=O)[nH]c(=O)n3CC(C)C)n2CC(C)C)cc1 | f
9) CCC(CC)c1ccc2c(NCCCNCc3cccc4c3OCO4)ccnc2c1 | t
10) CN(C)c1ccc(NC2=C(Cl)C(=O)c3ccccc3C2=O)cc1 | t
11) COc1ccc(CNC(=O)Cn2cnc3cc(-c4ccc(OC)cc4)sc3c2=O)cc1 | f
12) CCCN1C(=O)c2ccccc2NC1c1ccccc1F (centres unmarked) | f
13) Cc1ccc(C2Nc3ccccc3C(=O)N2CCCN2CCOCC2)cc1 (centres unmarked) | f
14) COc1ccc(F)cc1CNCCCNc1ccnc2cc(Oc3ccccc3)ccc12 | t

---

- assay_system: interaction between GST-MAGEA11 MHD and FAM-PCF11_4 peptide (MAGE-A11:PCF11) (Homo sapiens (Human), UniProt P43364)
- assay_procedure: TR-FRET dose response competition assay for disruption of MAGE-A11:PCF11 binding
- details: Dose response TR-FRET screening of nine scaffold groups against MAGE-A11:PCF11; read-out: consensus IC50
Examples of compounds with documented IC50 follow.
observation_type: IC50

1) CCCCn1c(=O)[nH]c(=O)c2c1nc(-c1cccc(F)c1)n2CC [SJ000414469-1] | 69.9 µM
2) COc1ccc(C(F)(F)F)cc1CNCCCNc1ccnc2cc(Cl)ccc12 [SJ000521036-1] | 69.9 µM
3) Fc1cccc(C(F)(F)F)c1CNCCCNc1ccnc2cc(Cl)ccc12 [SJ000521031-1] | 69.9 µM
4) C=C1C(Cl)=C(N2CCN(S(=O)(=O)c3ccc(Cl)cc3)CC2)C(=O)c2ccccc21 [SJ000029651-1] | 69.9 µM
5) COc1cc(Cc2ccc3c(NCCCNCc4cc(F)ccc4OC)ccnc3c2)cc(OC)c1 [SJ000311313-1] | 33.8 µM

---

- assay_system: MAGE-A11:PCF11 (Homo sapiens (Human))
- assay_procedure: TR-FRET single point screening at 15 μM
- Assay type: binding
- Parameters: unit not given here
- details: single point TR-FRET screening of quinoline compounds against MAGE-A11:PCF11; 15 μM
- Text: TR-FRET Assays and High-throughput Screen. Terbium-anti-GST antibody, 1 M Tris pH 7.5 1 M MgCl2 and 1 M DTT were purchased from Invitrogen (Carlsbad, CA), BSA was purchased from Sigma (St. Louis, MO). Dimethyl sulfoxide (DMSO) was purchased from Fisher Scientific (Pittsburgh, PA). Black 384-well low volume plates and 384-well polypropylene compound plates were purchased from Corning Incorporated (Tewksbury, MA). […]
Rule: criterion met for TR-FRET signal not less than 20, criterion not met for anything less.

1) c1coc(CNCCCNc2ccnc3cc(-c4ccc5c(c4)OCO5)ccc23)c1 | criterion met
2) CCCCCN(CCCNc1ccnc2cc(Cl)ccc12)Cc1ccccc1 | criterion met
3) CCOC(=O)c1cnc2ccc(F)cc2c1NCCCN1CCOCC1 | criterion not met
4) CCCN(CCCNc1ccnc2cc(C(F)(F)F)ccc12)CC(C)CC (stereo not drawn) | criterion met
5) CCCN(CCCNc1ccnc2cc(C(F)(F)F)ccc12)Cc1nc2ccccc2s1 | criterion not met
6) CCCN(CCCNc1ccnc2cc(C(F)(F)F)ccc12)Cc1ccc2[nH]ccc2c1 | criterion met
7) CCCN(CCCNc1ccnc2cc(Cl)ccc12)Cc1ccc(-c2ccccc2[N+](=O)[O-])o1 | criterion not met
8) CCCN(CCCNc1ccnc2cc(Cl)ccc12)CC1CCOC1 (stereo not drawn) | criterion not met
9) FC(F)(F)c1ccc2c(NCCCNCc3csc4ccccc34)ccnc2c1 | criterion met
10) FC(F)(F)c1ccc2c(NCCCNCc3nc4ccccc4s3)ccnc2c1 | criterion not met
11) CCCN(CCCNc1ccnc2cc(Cl)ccc12)Cc1ccc(-c2cccc(Cl)c2)o1 | criterion not met
12) CCCN(CCCNc1ccnc2cc(Cl)ccc12)Cc1c[nH]c2ccccc12 | criterion met
13) O=C(C[C@H]1CC[C@]2(CC1)OO[C@]1(O2)C2CC3CC(C2)CC1C3)NCCCNc1ccnc2cc(Cl)ccc12 | criterion met
14) FC(F)(F)Oc1cccc(CN(CCCNc2ccnc3cc(Cl)ccc23)Cc2ccccc2)c1 | criterion met
